# Test system: U2OS
# test-details: Multiplex assay against U2OS
# Assay type: toxicity, cell-based
# condition-set: human, 24 h, 10 µM, compound concentration 10 uM, replicate 2
Give Population Healthy Nuclei (%) for every item shown.
One number for each entry, in %.

Below are worked cases with known answers.
Cc1cc(O)c(-c2ccc([C@@H](C)CN(C)C)cc2)c2c1[nH]c(=O)c1sccc12
31
CN1CCN(c2ccc(Nc3c4ccccc4nc4ccccc34)cc2)CC1.Cl.Cl.O
23
Cc1nn(C)c2nc(NNC(=O)Nc3cc(Cl)nc(Cl)c3)cc(C(C)C)c12
61

Value sought for every listed molecule: Population Healthy Nuclei (%).
1. COCCCN1CCC(NC(=O)c2cc(Cl)c(N)c3c2OCC3)CC1 [PRUCALOPRIDE]
2. CCCCC[C@H](O)/C=C/[C@H]1[C@H](O)CC(=O)[C@@H]1CCCCCCC(=O)O
3. CN1CCN2c3ccccc3Cc3ccccc3C2C1.Cl (configuration not stated) [MIANSERIN HYDROCHLORIDE]
4. COc1cc(OC2CCN(C(C)=O)CC2)ccc1C(=O)N1CCC(N2C(=O)OCc3ccccc32)CC1

// result
76
76
77
80

---

# System: HEK-293T
# test-details: Multiplex assay against HEK293T
# Assay type: toxicity, cell-based
# condition-set: human, 12 h, 1 µM, compound concentration 1 uM, replicate 1
Non-standard residues stand in square brackets, D forms with d. Residues, ends and D or L forms follow the SMILES beside them.
Give Population Apoptotic (%) for every item shown.
Numbers only, in %.

Below are worked cases with known answers.
CC(C)(O)C(=O)N1CCN(c2ccc(C(F)(F)F)c(C3=C(c4c[nH]c5ccccc45)C(=O)NC3=O)c2)CC1
33
Cn1cc(C(=O)OCC2CCN(CCNS(C)(=O)=O)CC2)c2ccccc21
39

Value sought for every listed molecule: Population Apoptotic (%).
1. OCCCNc1cc(-c2ccnc(Nc3cccc(Cl)c3)n2)ccn1
2. COC(c1ccccc1)(c1ccccc1)[C@H](Oc1nc(C)cc(C)n1)C(=O)O
3. COCCn1c(C)c(C)s/c1=N\C(=O)C1C(C)(C)C1(C)C
4. CSc1nc(NC2CCCC2)c([N+](=O)[O-])c(NC2CCCC2)n1
5. COc1ccc2[nH]c(I)c(CCNC(C)=O)c2c1

// result
66
38
37
45
42

Value sought for every listed molecule: Population Apoptotic (%).
1. CN1CCC(C(=O)c2cccc(NC(=O)c3c(F)cc(F)cc3F)n2)CC1
2. CCc1nn2c(C)cc(C)nc2c1Cc1ccc(-c2nnc(C3CCNCC3)o2)cc1
3. CN(C)C(=O)Cn1cc(-c2ccc(-c3nnc4ccccn34)cc2)cn1
4. CN1CCN2c3ccccc3Cc3ccccc3C2C1.Cl (configuration not stated) [MIANSERIN HYDROCHLORIDE]
5. CN1C[C@H](C(=O)N[C@]2(C)O[C@@]3(O)[C@@H]4CCCN4C(=O)[C@H](Cc4ccccc4)N3C2=O)C[C@@H]2c3cccc4[nH]cc(c34)C[C@H]21.CS(=O)(=O)O [DIHYDROERGOTAMINE MESYLATE]
6. CC(C)C[C@@H]1NC(=O)[C@@H](C(C)C)NC(=O)[C@@H]2CCCN2C(=O)[C@@H](CC(=O)O)NC(=O)[C@@H](Cc2c[nH]c3ccccc23)NC1=O [BQ-123] (cyclo(L[dW][dD]P[dV]))
7. CC(C)(C)c1ccc(CSc2cnn(C(C)(C)C)c(=O)c2Cl)cc1
8. N[C@](CC1c2ccccc2Oc2ccccc21)(C(=O)O)[C@H]1C[C@@H]1C(=O)O

// result
32
35
31
23
38
46
51
38

Value sought for every listed molecule: Population Apoptotic (%).
1. Cc1c(Cc2ccc3ccccc3n2)c2cc(F)ccc2n1CC(=O)O
2. Cc1cc(NC(=O)NCCN2CCC(O)(Cc3ccccc3)CC2)c2ccccc2n1
3. S=C(NCCCc1c[nH]cn1)NCCCN(Cc1ccc(Cl)c(Cl)c1)c1ccc(Br)cn1
4. COc1cc2nc(N3CCN(C(=O)c4ccco4)CC3)nc(N)c2cc1OC.Cl [PRAZOSIN HYDROCHLORIDE]
5. Cc1sc2c(c1C)C(c1ccc(Cl)cc1)=N[C@H](CC(=O)OC(C)(C)C)c1nnc(C)n1-2
6. CC(C)C[C@H](CO)Nc1nc(S[C@@H](C)c2ccccc2)nc2nc(N)sc12
7. CN(C)C/C=C/C(=O)Nc1ccc(C(=O)N2CCCC(Nc3ncc(Cl)c(-c4c[nH]c5ccccc45)n3)C2)cc1 (configuration not stated)

// result
42
36
39
32
40
39
46

Value sought for every listed molecule: Population Apoptotic (%).
1. C[C@@H]1CC(=O)Nc2cccc(-c3ccc4c(c3)c(-c3cnn(C)c3)nn4C)c2N1
2. C=CCN1C[C@H](C(=O)N(CCCN(C)C)C(=O)NCC)C[C@@H]2c3cccc4[nH]cc(c34)C[C@H]21
3. COCCCN1CCC(NC(=O)c2cc(Cl)c(N)c3c2OCC3)CC1 [PRUCALOPRIDE]
4. Nc1nc(-c2ccco2)c2cnn(Cc3ccccc3F)c2n1
5. COc1cc2nc(N3CCN(C(=O)COc4c(OC)cccc4C(C)C)CC3)nc(N)c2cc1OC.Cl.Cl

// result
1. 36
2. 36
3. 22
4. 37
5. 35

The origin of these recorded values is ChEMBL document CHEMBL5058577.
